# SYSTEM TESTED: Furin (108-574-Tev-Flag-His) enzyme (Homo sapiens, UniProt P09958)
# Construct: Furin (108-574-Tev-Flag-His) enzyme was expressed and purified from CHO cells; TEV cleavage site (C); FLAG (C); His (C); made in house; host or cells: CHO cells
# Sequence (P09958 108-574): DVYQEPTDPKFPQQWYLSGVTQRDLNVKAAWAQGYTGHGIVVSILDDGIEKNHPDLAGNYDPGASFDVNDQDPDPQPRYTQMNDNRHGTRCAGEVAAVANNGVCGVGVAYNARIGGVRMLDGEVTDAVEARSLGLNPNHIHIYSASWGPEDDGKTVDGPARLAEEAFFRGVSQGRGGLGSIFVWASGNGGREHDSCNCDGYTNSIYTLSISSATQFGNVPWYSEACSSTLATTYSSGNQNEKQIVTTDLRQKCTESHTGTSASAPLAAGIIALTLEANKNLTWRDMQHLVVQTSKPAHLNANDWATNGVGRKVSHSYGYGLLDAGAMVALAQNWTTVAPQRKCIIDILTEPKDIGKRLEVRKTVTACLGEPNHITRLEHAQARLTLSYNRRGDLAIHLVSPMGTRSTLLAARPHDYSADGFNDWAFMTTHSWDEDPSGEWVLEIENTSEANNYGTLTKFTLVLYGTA
# METHOD DESCRIPTION: Furin enzyme assay
# Type: biochemical
Where a name gives a salt, the structure may show the parent alone.
METRIC NAME: furin enzyme pIC50

COMPOUND	METRIC NAME	VAL
CNC(=O)NCC1CCN(Cc2cc(Oc3cnc(N4CCN(CCCS(N)(=O)=O)CC4)nc3)nc(-c3cc(Cl)cc(Cl)c3)c2)CC1 [Example 48, hydrochloride]	furin enzyme pIC50	9.4
CC(=O)NCC1CCN(Cc2cc(-c3cc(Cl)cc(Cl)c3)nc(Oc3ccc(N4CCNCC4)nc3)n2)CC1	furin enzyme pIC50	8.5
CC(=O)NCC1CCN(Cc2cc(Oc3ccc(N4CCN([C@H]5C[C@H](NS(C)(=O)=O)C5)CC4)nc3)nc(-c3cc(Cl)cc(Cl)c3)c2)CC1	furin enzyme pIC50	9.9
CNC(=O)OCC1CCN(Cc2cc(Oc3cnc(N4CCN(C5CC(C(=O)O)C5)CC4)nc3)nc(-c3cc(Cl)cc(Cl)c3)c2)CC1 (centres unmarked)	furin enzyme pIC50	10.1
CC(=O)NCC1CCN(Cc2cc(Oc3cnc(N4CCN(C(C)CCS(C)(=O)=O)CC4)nc3)nc(-c3cc(F)cc(Cl)c3)c2)CC1 (centres unmarked)	furin enzyme pIC50	8.8
FC1CCN(Cc2cc(Oc3cnc(N4CCN5CCC4C5)nc3)nc(-c3cc(Cl)cc(Cl)c3)c2)CC1 (centres unmarked)	furin enzyme pIC50	8
CC(=O)NCC1CCN(Cc2cc(Oc3ccc(N4CCN(CCN(C)S(C)(=O)=O)CC4)nc3)nc(-c3cc(Cl)cc(Cl)c3)c2)CC1	furin enzyme pIC50	8.7
CC(=O)NCC1CCN(Cc2cc(Oc3ccc(N4CCN(CCS(C)(=O)=O)CC4)nc3)cc(-c3cc(Cl)cc(Cl)c3)c2)CC1	furin enzyme pIC50	8.2
CC(=O)NCC1CCN(Cc2cc(Oc3cnc(N4CCN(CC(C)C(N)=O)CC4)nc3)nc(-c3cc(Cl)cc(Cl)c3)c2)CC1 (centres unmarked)	furin enzyme pIC50	10.1
CC(=O)NCC1CCN(Cc2cc(Oc3ccc(N4CCN([C@H]5C[C@@H](NS(C)(=O)=O)C5)CC4)nc3)nc(-c3cc(Cl)cc(Cl)c3)c2)CC1	furin enzyme pIC50	9.6
CC(=O)NCC1CCN(Cc2cc(Oc3cnc(N4CCN(CC(C)C(=O)O)CC4)nc3)nc(-c3cc(Cl)cc(Cl)c3)c2)CC1 (centres unmarked)	furin enzyme pIC50	9.1
CC(CC1CCN(Cc2cc(Oc3cnc(N4CCN(C)CC4)nc3)nc(-c3cc(Cl)cc(Cl)c3)c2)CC1)C(=O)O (centres unmarked) [Example 131]	furin enzyme pIC50	8.7
CN1CCCN(c2ncc(Oc3cc(CN4CC[C@@H]5[C@H](CC4)[C@H]5C(=O)O)cc(-c4cc(Cl)cc(Cl)c4)n3)cn2)CC1 [Example 397, hydrochloride]	furin enzyme pIC50	9
CN1CCN(c2ncc(Oc3cc(CN4CCC(CC(=O)O)CC4)cc(-c4cc(Cl)cc(Cl)c4)n3)cc2F)CC1	furin enzyme pIC50	8.2
NC(=O)CCN1CCN(Cc2cc(Oc3cnc(N4CCN(CCC(=O)O)CC4)nc3)nc(-c3cc(Cl)cc(Cl)c3)c2)CC1	furin enzyme pIC50	8
CNC(=O)NCC1CCN(Cc2cc(Oc3cnc(N4CCN(C(C)CCS(C)(=O)=O)CC4)nc3)nc(-c3cc(F)cc(Cl)c3)c2)CC1 (centres unmarked)	furin enzyme pIC50	8.9
CS(=O)(=O)CCCN1CCN(c2ccc(Oc3cc(CN4CCC(CCC(=O)O)CC4)cc(-c4cc(Cl)cc(Cl)c4)n3)cn2)CC1	furin enzyme pIC50	8.9
CC(=O)N[C@H]1[C@@H]2CCN(Cc3cc(Oc4cnc(N5CCN(CCC(C)C(=O)O)CC5)nc4)nc(-c4cc(Cl)cc(Cl)c4)c3)CC[C@@H]21 (some centres unmarked)	furin enzyme pIC50	9.3
CN1CCN(c2cnc(Oc3nc(-c4cc(Cl)cc(Cl)c4)cc(CN4CCC(CC(=O)O)CC4)c3F)cn2)CC1	furin enzyme pIC50	8.3
CNC(=O)NCC1CCN(Cc2cc(Oc3cnc(N4CCN(CCC(=O)O)CC4)nc3)nc(-c3cc(Cl)cc(Cl)c3)c2)CC1	furin enzyme pIC50	9.5
CC(O)CCN1CCN(c2cnc(Oc3cc(CN4CCC(CC(=O)O)CC4)cc(-c4cc(Cl)cc(Cl)c4)n3)cn2)CC1 (centres unmarked)	furin enzyme pIC50	8.6
COCCN1CCN(c2ccc(Oc3cc(CN4CCC(CC(=O)O)CC4)cc(-c4cc(Cl)cc(Cl)c4)n3)cn2)CC1	furin enzyme pIC50	8.3
CNCc1cc(Oc2ccc(N3CC4CNCC4C3)nc2)cc(-c2cc(Cl)cc(Cl)c2)c1 (centres unmarked)	furin enzyme pIC50	9.4
CC(=O)NCC1CCN(Cc2cc(Oc3ccc(N4CCN(CC(O)CCO)CC4)nc3)nc(-c3cc(Cl)cc(Cl)c3)c2)CC1 (centres unmarked)	furin enzyme pIC50	9
O=C(O)CC1CCN(Cc2cc(Oc3cnc(N4CCN5CCC4C5)nc3)nc(-c3cc(Cl)cc(Cl)c3)c2)CC1 (centres unmarked) [Example 334, hydrochloride]	furin enzyme pIC50	8.9
CN1C[C@@H]2C[C@H]1CN2c1ncc(Oc2cc(CN3CCC(CC(=O)O)CC3)cc(-c3cc(Cl)cc(Cl)c3)n2)cn1	furin enzyme pIC50	8.5
